Assign Emax to each entry below.
# system under test: human muscarinic M1 receptor (Homo sapiens, UniProt P11229)
# Sequence (P11229 whole entry): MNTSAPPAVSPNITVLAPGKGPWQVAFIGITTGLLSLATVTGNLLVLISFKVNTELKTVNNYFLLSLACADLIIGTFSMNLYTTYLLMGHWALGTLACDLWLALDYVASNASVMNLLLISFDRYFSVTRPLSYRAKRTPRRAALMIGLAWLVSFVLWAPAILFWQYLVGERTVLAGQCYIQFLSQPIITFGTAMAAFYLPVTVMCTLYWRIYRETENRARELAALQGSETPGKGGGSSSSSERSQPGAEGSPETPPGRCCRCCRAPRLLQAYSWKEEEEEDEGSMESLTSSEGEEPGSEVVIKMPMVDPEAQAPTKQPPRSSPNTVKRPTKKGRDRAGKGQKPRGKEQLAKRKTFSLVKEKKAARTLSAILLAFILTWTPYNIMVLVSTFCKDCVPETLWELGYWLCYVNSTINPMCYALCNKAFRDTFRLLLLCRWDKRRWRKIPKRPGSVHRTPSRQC
# experiment description: Alphascreen Surefire phospho-ERK1/2 functional assay, M1
# Assay type: cell-based
# assay context: CHO, read-out: % Emax cf. ACh, M1, CHO cells stably expressing human M1; Emax relative to ACh
Answers are plain numbers, in %.

For each of the items listed, what is its Emax?
1. CCOC(=O)N1C2COCC1CC(N1CCC(N(Cc3ccccc3)C(C)=O)CC1)C2 (single isomer, unassigned) [Example 6-5 Isomer 1]
2. CCOC(=O)N1C2COCC1CC(N1CCC3(CC1)CNC(=O)O3)C2 (single isomer, unassigned) [Example 5-3 Isomer 1]
3. CCOC(=O)N1C2COCC1CC(N1CCC(C#N)(c3ccccn3)CC1)C2 (single isomer, unassigned) [Example 3-1 Isomer 1]
4. CCOC(=O)N1C2COCC1CC(N1CCC(N(CC(C)C)C(C)=O)CC1)C2 (single isomer, unassigned) [Example 6-1 Isomer 1]
5. CCOC(=O)N1C2COCC1CC(N1CCC(N(CC(C)(C)C)C(C)=O)CC1)C2 (single isomer, unassigned) [Example 6-2 Isomer 1]
6. CCOC(=O)N1C2COCC1CC(N1CCC(C(=O)NCC3CCC3)CC1)C2 (single isomer, unassigned) [Example 7-3 Isomer 1]
7. CCOC(=O)N1C2COCC1CC(N1CCC(n3cccn3)CC1)C2 (single isomer, unassigned) [Example 1-1 Isomer 1]

[92, 75, 97, 93, 71, 100, 116]

Please supply Emax for each of the following items, keeping them in order.
1. CCOC(=O)N1C2COCC1CC(N1CCC(c3cccc(OC)n3)CC1)C2 (single isomer, unassigned) [Example 2-1 Isomer 1]
2. CCOC(=O)N1C2COCC1CC(N1CCC(C(=O)NCC(C)C)CC1)C2 (single isomer, unassigned) [Example 7-2 Isomer 1]
3. CCOC(=O)N1C2COCC1CC(N1CCC(C(=O)N3CCCCCC3)CC1)C2 (single isomer, unassigned) [Example 7-4 Isomer 1]
4. CCOC(=O)N1C2COCC1CC(N1CCC3(CC1)CC3)C2 (single isomer, unassigned) [Example 5-1 Isomer 1]

[44, 96, 85, 47]
